# system: T1, L-selectin (LS-Rg) (Homo sapiens, UniProt P14151 P14151:39-332)
# T1 chain: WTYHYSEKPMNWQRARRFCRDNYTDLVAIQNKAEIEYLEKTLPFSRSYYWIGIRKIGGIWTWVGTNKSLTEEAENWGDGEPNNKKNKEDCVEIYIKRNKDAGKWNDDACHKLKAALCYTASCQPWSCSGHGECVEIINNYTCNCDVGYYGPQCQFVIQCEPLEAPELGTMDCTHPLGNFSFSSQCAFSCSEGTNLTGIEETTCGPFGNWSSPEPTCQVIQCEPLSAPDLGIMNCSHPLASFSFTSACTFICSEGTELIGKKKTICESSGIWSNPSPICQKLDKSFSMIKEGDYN
# experimental.details: filter; room temp; 8.5 nM at 37 C
# recorded.conditions: tags: human IgG2 Fc fusion (provided by A. Varki); label: 32P; hairpin
measured.endpoint: pKd
pKd is defined as minus the log10 of a concentration measured in mol/L.

Lookup result for 108 (ssDNA) DNA: CTACCTACGATCTGACTAGCGAGTAGCCAAGGCGTTAGACGGAGGGGGAATGTGAGCACAGCTTACTCTCATGTAGTTCC ; measured pKd: 9.80
